test system: S. aureus; assay: Antibacterial susceptibility testing, IC90 determination with 10% human serum (STA + 10% HS); format: cell-based, Staphylococcus aureus; details: Staphylococcus aureus, human serum at final concentration of 10%, read-out: STA + 10% HS (361.169) IC90
readout.kind: IC90

CC(=O)Nc1ccc(/C=C/C(=O)N2CC3C=C(c4ccccc4)CC3C2)cn1 (centres unmarked)    0.5 µg/mL
Cc1cncc(C(=O)Nc2ccc(/C=C/C(=O)N3CC4C=C(c5ccccc5)CC4C3)cn2)c1 (centres unmarked)    0.67 µg/mL
O=C1COCc2cc(/C=C/C(=O)N3CC4C=C(c5ccccc5)CC4C3)cnc2N1 (centres unmarked)    0.35 µg/mL
CC1(C)Oc2cc(/C=C/C(=O)N3CC4C=C(c5ccccc5)CC4C3)cnc2NC1=O (centres unmarked)    < 0.2 µg/mL
COc1ccccc1N1C[C@H]2CN(C(=O)/C=C/c3cnc4c(c3)CN(C)CC(=O)N4)C[C@H]2C1    3.17 µg/mL
O=C1Nc2ncc(/C=C/C(=O)N3CC4C=C(c5ccccc5)CC4C3)cc2C(=O)N2CCOCC12 (centres unmarked)    0.41 µg/mL
O=C1Nc2ncc(/C=C/C(=O)N3CC4C=C(c5ccccc5)CC4C3)cc2Cn2cncc21 (centres unmarked)    < 0.21 µg/mL

Shifting focus to the molecule that follows.
## Task Fill blank: measured IC90 of the molecule O=C1CNCc2cc(/C=C/C(=O)N3CC4C=C(c5ccsc5)CC4C3)cnc2N1 (centres unmarked) is ____.
## Result < 0.19 µg/mL
